Examples of molecules with documented TGI follow.
Tested on: HS 578T breast
Experiment: NCI tumour cell line growth inhibition, 48 h

Look over these answered cases.
INSERT INTO results (molecule, property_measured, test_value) VALUES
  ('CC(=O)OC1CC[C@@]2(C)C(C1)CC(OC(C)=O)[C@@H]1C2CC(OC(C)=O)[C@]2(C)C(C(C)CC=C(c3ccc(Cl)cc3)c3ccc(Cl)cc3)CCC12 (stereo not given in full)', 'TGI', '> 100 µM'),
  ('C1=C(c2ccccc2)SC=C(c2ccccc2)S1', 'TGI', '> 100 µM');

Prompt line: What measured TGI goes with `CN1CCN(c2ccc(NC3=C(Cl)C(=O)c4ncccc4C3=O)cc2C#N)CC1` ?
Response line: 5.47 µM

Prompt line: Need TGI of COC1CC(CC2CCC(C)C(C(C)C(=O)O)O2)OC2(OC(C)(C3CCC(C)(C4OC(C5OC(O)(CO)C(C)CC5C)CC4C)O3)CC2C)C1C (stereo not given) , thanks.
Response line: > 35.2 µM

Prompt line: Consider the molecule shown here: `CC1(C)CCCOc2cccc(c2)OCCCC(C)(C)C1=O` What is its recorded TGI?
Response line: > 100 µM

Prompt line: What measured TGI goes with `Cc1cc(=O)oc2c(C)c3oc(CBr)c(Br)c3cc12` ?
Response line: > 100 µM

Prompt line: Report TGI for `C/C1=C\C/C=C(\C)[C@H]2CC(CC/C(C)=C/CC1)[C@](C)(C=O)O2` please.
Response line: > 100 µM

Prompt line: # input molecule: `CO[C@@]12C[C@H]3[C@@H]([C@@H](O)[C@@H](OC(=O)/C=C/c4ccccc4)[C@@]4(O)C(C)(C)CCC[C@]34C)[C@@H](C)C1=CC(=O)O2` ; wanted: its TGI
Response line: 29.3 µM

* * *

System: TK-10 renal
Experiment: NCI tumour cell line growth inhibition, 48 h
Reported GI50 values for a set of molecules

Known results for molecules:
INSERT INTO assay_data (molecule, assayed_system, property_measured, test_value) VALUES
  ('NC(=S)N/N=C\c1nccc2c(N)cccc12', 'TK-10 renal', 'GI50', '0.961 µM'),
  ('CC(C)(C)OC(=O)CN1CCc2c(sc3ncnc(N/N=C/c4cccc5ccccc45)c23)C1', 'TK-10 renal', 'GI50', '5.34 µM'),
  ('CC(=O)/C=C/C1=C(c2cccs2)c2ccccc2CC1', 'TK-10 renal', 'GI50', '32 µM'),
  ('Cc1ccc(C2C3=C(N=c4s/c(=C/c5ccc(Br)cc5)c(=O)n42)c2ccc4ccccc4c2OCC3)cc1 (stereo unspecified)', 'TK-10 renal', 'GI50', '> 100 µM'),
  ('C#Cc1cccc(Oc2ccc(NC(=O)CCl)cc2)c1', 'TK-10 renal', 'GI50', '> 82.5 µM'),
  ('C=CCC(N[C@H](CO)c1ccccc1)c1cn(S(=O)(=O)c2ccc(C)cc2)c2ccccc12 (stereo partly specified)', 'TK-10 renal', 'GI50', '3.62 µM'),
  ('CC1SC(c2c(Cl)cccc2Cl)N(NC(=O)C(O)c2ccccc2)C1=O (stereo unspecified)', 'TK-10 renal', 'GI50', '> 100 µM'),
  ('COC(=O)C1(C2CC/C(C)=C/CC/C(C)=C/CC[C@@]3(C)O[C@@H]3C2)CC1 (stereo partly specified)', 'TK-10 renal', 'GI50', '> 59.6 µM'),
  ('C[C@]12C3CC[C@@]4(CO)C[C@]3(CCC1[C@](C)(C(=O)O)CC[C@@H]2O)CC4=O (stereo partly specified)', 'TK-10 renal', 'GI50', '> 100 µM'),
  ('COC(=O)OCc1ccc2c(c1)C(=O)c1c-2n(CCCBr)c(=O)c2cc([N+](=O)[O-])ccc12', 'TK-10 renal', 'GI50', '19.1 µM');

Switching to the query record.
Prompt line: Quick one: GI50 for `CC(=O)[C-](C(C)=O)c1ccccc1.CC(=O)[C-](C(C)=O)c1ccccc1.CC[O-].CC[O-].[Ti+4]` ?
Response line: > 100 µM
